- TARGET DESC: USP28 (His-tagged USP28-FL-mammalian) (Homo sapiens, UniProt Q96RU2)
- Construct: Expression of USP28 (1-1077)-TEV-6*His (pTT5 vector); made in house; host or cells: Expi293f cells (pTT5 vector)
- Sequence (Q96RU2 1-1077): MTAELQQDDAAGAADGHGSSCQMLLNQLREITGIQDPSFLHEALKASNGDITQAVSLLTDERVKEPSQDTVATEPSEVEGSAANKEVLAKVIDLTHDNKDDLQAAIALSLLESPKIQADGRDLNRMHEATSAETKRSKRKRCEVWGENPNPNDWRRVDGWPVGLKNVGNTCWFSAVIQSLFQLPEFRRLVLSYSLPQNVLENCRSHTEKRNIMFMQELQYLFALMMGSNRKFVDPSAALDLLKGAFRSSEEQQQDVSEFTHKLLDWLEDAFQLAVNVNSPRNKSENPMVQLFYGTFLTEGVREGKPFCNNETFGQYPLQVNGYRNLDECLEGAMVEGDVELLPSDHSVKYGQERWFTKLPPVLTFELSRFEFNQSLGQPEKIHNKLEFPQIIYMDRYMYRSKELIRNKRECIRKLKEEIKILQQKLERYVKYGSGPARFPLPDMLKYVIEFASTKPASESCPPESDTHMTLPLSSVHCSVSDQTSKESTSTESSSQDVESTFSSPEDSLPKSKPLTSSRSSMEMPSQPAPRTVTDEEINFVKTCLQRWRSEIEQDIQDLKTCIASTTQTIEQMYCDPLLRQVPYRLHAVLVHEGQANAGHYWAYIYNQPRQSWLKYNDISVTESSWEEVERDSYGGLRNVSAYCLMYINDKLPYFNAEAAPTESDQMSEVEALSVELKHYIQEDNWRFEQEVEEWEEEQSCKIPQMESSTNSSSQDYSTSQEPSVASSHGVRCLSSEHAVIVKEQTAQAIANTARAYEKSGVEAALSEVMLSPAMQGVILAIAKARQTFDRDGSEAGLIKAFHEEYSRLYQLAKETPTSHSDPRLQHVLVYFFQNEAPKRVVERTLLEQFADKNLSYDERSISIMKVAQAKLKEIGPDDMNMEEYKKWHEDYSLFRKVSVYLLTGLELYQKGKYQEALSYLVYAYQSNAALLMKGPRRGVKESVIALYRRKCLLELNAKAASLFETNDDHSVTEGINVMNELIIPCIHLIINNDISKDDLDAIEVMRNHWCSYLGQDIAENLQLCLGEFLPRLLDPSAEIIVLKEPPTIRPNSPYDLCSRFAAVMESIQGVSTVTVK
- RUN DESCRIPTION: Ubiquitin-Rhodamine 110 Assay for USP28 Activity, Example A-1(a)
- Assay type: biochemical
- CONDITION DETAILS: Ubiquitin-Rhodamine 110 assay, Example A-1(a); read-out: USP28 A-1(a) IC50 range
pIC50: −log10 of the molar value.
PROPERTY LABEL: pIC50

Problem: Fill blank: measured pIC50 of the compound COC[C@@]1(C)CN(c2ccc3c(n2)CC[C@H](NC(=O)c2sc4nc(C)ccc4c2N)C3)CC1N (stereo in doubt) is ____.
Solution: 6.70 to 7.30

Problem: Could you do the same for "Cc1ccc2c(N)c(C(=O)N[C@H]3COc4cc(N5C[C@@H]6CC[C@H]5CN6)ncc4C3)sc2n1" , please?
Solution: 7.30 to 9.00

Problem: Could you do the same for "Cc1ccc2c(N)c(C(=O)N[C@H]3CCc4nc(N5CC[C@]6(C5)OCC[C@@H]6N)ccc4C3)sc2n1" , please?
Solution: 5.70 to 6.70

Problem: Could you do the same for "Cc1ccc2c(N)c(C(=O)N[C@H]3COc4cc(N5C[C@@H](N)[C@@]6(CCCO6)C5)ccc4C3)sc2n1" , please?
Solution: 6.70 to 7.30

Problem: Could you do the same for "CO[C@@]12CCN[C@H]1CN(c1ccc3c(c1)OC[C@H](NC(=O)c1sc4nc(C)ccc4c1N)C3)C2" , please?
Solution: 7.30 to 9.00

Problem: Could you do the same for "Cc1ccc2c(N)c(C(=O)N[C@H]3COc4cc(N5CCC6(CNC6)C5)ccc4C3)sc2n1" , please?
Solution: 7.30 to 9.00

Problem: Could you do the same for "COc1nc2sc(C(=O)N[C@H]3CCc4cc(N5C[C@H](OC)[C@@H](N)C5)ccc4C3)c(N)c2cc1F" , please?
Solution: 5.70 to 6.70

Problem: Could you do the same for "CCc1cnc2sc(C(=O)N[C@@H]3COc4cc(N5CCNCC5)ccc4C3)c(N)c2n1" , please?
Solution: < 5.70

Problem: Could you do the same for "CO[C@]12CCN[C@@H]1CN(c1ccc3c(c1)OC[C@H](NC(=O)c1sc4nc(C)ccc4c1N)C3)C2" , please?
Solution: 7.30 to 9.00

Problem: Could you do the same for "C[C@@H]1CCc2cc(C(=O)N[C@H]3COc4cc(N5CC6CCC(C5)N6)ccc4C3)cnc2N1" , please?
Solution: 6.70 to 7.30

Problem: Could you do the same for "O=C(N[C@@H]1CCc2cc(N3CC4CCC(C3)N4)cc(F)c2C1)c1cnc2c(c1)[C@H]1C[C@H]1CN2" , please?
Solution: 5.70 to 6.70

Problem: Could you do the same for CO[C@H]1CN(c2cc(F)c3c(c2)OC[C@H](NC(=O)c2sc4nc(C)ccc4c2N)C3)C[C@@H]1N (single isomer, unassigned) , please?
Solution: 7.30 to 9.00

Problem: Could you do the same for "COC[C@H]1C[C@H](N)CN1c1ccc2c(c1)OC[C@H](NC(=O)c1sc3nc(C)ccc3c1N)C2" , please?
Solution: 7.30 to 9.00

Problem: Could you do the same for "Cc1ccc2c(N)c(C(=O)N[C@H]3COc4cc(N5CCN[C@H](C(F)(F)F)C5)ccc4C3)sc2n1" , please?
Solution: 6.70 to 7.30

Problem: Could you do the same for "CO[C@@H]1CN(c2cc3c(c(F)c2F)C[C@@H](NC(=O)c2sc4nc(C)ccc4c2N)CO3)C[C@H]1N" , please?
Solution: 7.30 to 9.00

Problem: Could you do the same for "Cc1ccc2c(N)c(C(=O)N[C@H]3CCc4nc(N5CC[C@@](N)(CO)C5)ccc4C3)sc2n1" , please?
Solution: 6.70 to 7.30

Problem: Could you do the same for "Cc1cc(C)c2c(N)c(C(=O)N[C@H]3CCc4nc(N5CC[C@H]6CNC[C@H]65)ccc4C3)sc2n1" , please?
Solution: 6.70 to 7.30

Problem: Could you do the same for "Cc1ccc2c(N)c(C(=O)N[C@H]3COc4cc(N5C[C@@H](N)[C@@]6(CCOC6)C5)ccc4C3)sc2n1" , please?
Solution: 7.30 to 9.00

Problem: Could you do the same for "Cc1ccc2c(N)c(C(=O)N[C@H]3CCc4nc(N5CCN[C@H](C(F)F)C5)ccc4C3)sc2n1" , please?
Solution: 6.70 to 7.30

Problem: Could you do the same for "CC(=O)Nc1cccc(CNc2ccc(C(=O)N[C@H]3COc4cc(N5CCNCC5)ccc4C3)cn2)c1" , please?
Solution: < 5.70

Problem: Could you do the same for "O=C(N[C@H]1COc2cc(N3CCNCC3)ccc2C1)c1cnn2cccnc12" , please?
Solution: < 5.70

Problem: Could you do the same for "CO[C@H]1CN(c2ccc3c(c2C#N)CC[C@H](NC(=O)c2sc4nc(C)ccc4c2N)C3)C[C@@H]1N" , please?
Solution: 7.30 to 9.00

Problem: Could you do the same for "CO[C@H]1CN(c2cc3c(cc2C#N)C[C@@H](NC(=O)c2sc4nc(C)ccc4c2N)CC3)C[C@@H]1N" , please?
Solution: 7.30 to 9.00

Problem: Could you do the same for "Nc1c(C(=O)N[C@H]2COc3cc(N4CCNCC4)ccc3C2)sc2nc(C3CC3)sc12" , please?
Solution: 6.70 to 7.30

Problem: Could you do the same for "Cc1cnc2c(N)c(C(=O)N[C@H]3CCc4nc(N5CC6CCC(C5)N6)ccc4C3)sc2n1" , please?
Solution: 7.30 to 9.00

Problem: Could you do the same for "CO[C@H]1CN(c2ncc3c(n2)CC[C@@H](NC(=O)c2sc4nc(C)cc(C)c4c2N)C3)C[C@@H]1N" , please?
Solution: 5.70 to 6.70

Value source: patent US11524966B1
